# run_description: recombinant barcode read abundance after kanamycin selection (control-corrected) (log10(CPM+1)); higher = more efficient recombination; sequences stand for … in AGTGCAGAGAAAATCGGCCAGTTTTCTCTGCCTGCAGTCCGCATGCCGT…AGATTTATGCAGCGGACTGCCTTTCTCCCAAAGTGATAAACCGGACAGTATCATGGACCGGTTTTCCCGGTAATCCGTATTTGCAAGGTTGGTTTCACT; site = the 11-nt target;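 further: IS621 recombinase and bridge RNA in Escherichia coli cells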
Label rule, in plain words: recombinant barcode read abundance (log10) of 0.2 and up is Satisfied, under 0.2 is Not satisfied.

# bool: recombinant barcode read abundance (log10) of TACTGAGCTTGGGTTCTAACCTGTTGCCT (site TACTGAGCTAG) >= 0.2
Satisfied

Decide: is the reported value of recombinant barcode read abundance (log10) for TGGGTCCCTTGGGTTCTAACCTGTTGCCT (site TGCGTCCCTAG) equal to or greater than 0.2?
Not satisfied

Threshold query (recombinant barcode read abundance (log10) >= 0.2) on GAGAGATCTTGGGTTCTAACCTGTTGCCT (site GAGAGATCTAG)
Satisfied

Determine whether this sequence has recombinant barcode read abundance (log10) no lower than 0.2: TAGGCCACTTGGGTTCTAACCTGTTGCCT (site TAGGCCACTAG)
Satisfied

Decide: is the reported value of recombinant barcode read abundance (log10) for GCGGGGTCTTGGGTTCTAACCTGTTGCCT (site TCGGGGTCTAG) equal to or greater than 0.2?
Satisfied

Identify whether the reported recombinant barcode read abundance (log10) of the following sequence is 0.2 or greater: GGTCGAACTTGGGTTCTAACCTGTTGCCT (site GGTCCAACTAG)
Not satisfied

Evaluate TAAGACGCTTGGGTTCTAACCTGTTGCCT (site TATGACGCTAG) : recombinant barcode read abundance (log10) at minimum 0.2?
Satisfied

hey, is recombinant barcode read abundance (log10) for this one >= 0.2? CTAGCCTCTTGGGTTCTAACCTGTTGCAT (site CTACCCTCTAT)
Satisfied

Check the entry TGGCCCTCTTGGGTTCTAACCTGTTGCTA (site TGGCCCTCTAA) : does recombinant barcode read abundance (log10) equal or exceed 0.2?
Satisfied

Quick check: does AGGCGTACTTGGGTTCTAACCTGTTGCCT (site AGGCGTACTAG) have recombinant barcode read abundance (log10) greater than or equal to 0.2?
Satisfied

Dear colleague, could you confirm whether CGGGCCTCTTGGGTTCTAACCTGTTGCTA (site CGGGCCTCTAA) has recombinant barcode read abundance (log10) at or above 0.2?
Not satisfied

State whether the measured recombinant barcode read abundance (log10) reaches 0.2, counting equality as reaching it, for TTAGGGCCTTGGGTTCTAACCTGTTGCCT (site TTAGGGGCTAG)
Not satisfied

Threshold query (recombinant barcode read abundance (log10) >= 0.2) on TGGCTCCCTTGGGTTCTAACCTGTTGCGG (site TGGCTCCCTCC)
Not satisfied

Is recombinant barcode read abundance (log10) for AATGCTCCTTGGGTTCTAACCTGTTGCGT (site AATGCTCCTAA) at or above 0.2?
Not satisfied

Please indicate if the recorded recombinant barcode read abundance (log10) for ATAGACCCTTGGGTTCTAACCTGTTGCCT (site GTAGACCCTAG) meets or exceeds 0.2.
Satisfied

# check: recombinant barcode read abundance (log10) of TGTAGTCCTTGGGTTCTAACCTGTTGCAT (site TGTAGTCCTAC) is greater than or equal to 0.2
Not satisfied

Quick check: does GCTCAGTCTTGGGTTCTAACCTGTTGCCT (site GCTCAGACTAG) have recombinant barcode read abundance (log10) greater than or equal to 0.2?
Not satisfied

Quick check: does CATAAGCCTTGGGTTCTAACCTGTTGCCT (site CATAAGCCTAG) have recombinant barcode read abundance (log10) greater than or equal to 0.2?
Satisfied

Is the recorded value of recombinant barcode read abundance (log10) equal to or greater than 0.2 for this sequence? AGGCGCCCTTGGGTTCTAACCTGTTGCAC (site AGGCGCCCTTT)
Not satisfied

Quick check: does CTACTAACTTGGGTTCTAACCTGTTGCAT (site CTACTAACTAA) have recombinant barcode read abundance (log10) greater than or equal to 0.2?
Not satisfied

Hi, just wondering whether TCGTGCCCTTGGGTTCTAACCTGTTGCTT (site TCGTGCCCTCA) shows recombinant barcode read abundance (log10) of 0.2 or higher.
Satisfied

###

# run_description: recombinant barcode read abundance after kanamycin selection (control-corrected) (log10(CPM+1)); higher = more efficient recombination; sequences stand for … in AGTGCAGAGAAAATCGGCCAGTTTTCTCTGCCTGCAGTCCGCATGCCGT…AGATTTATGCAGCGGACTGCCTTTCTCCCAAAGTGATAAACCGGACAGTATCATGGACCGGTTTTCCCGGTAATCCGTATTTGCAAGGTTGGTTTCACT; site = the 11-nt target
Note to self: values exactly at 0.1 are True. So recombinant barcode read abundance (log10) at or above 0.1 is True, below is False.

Can GTCGGTCCTTGGGTTCTAACCTGTTGCAC (site TGAAACTCTCC) be said to have recombinant barcode read abundance (log10) at or above 0.1?
False

Threshold query (recombinant barcode read abundance (log10) >= 0.1) on TTGGGTGCTTGGGTTCTAACCTGTTGCAT (site TTGGGTGCTAT)
True

Assess whether reported recombinant barcode read abundance (log10) for ATGCAAGCTTGGGTTCTAACCTGTTGCCT (site ATGCAAGCTAG) sits at 0.1 or higher.
True

Can AGCTGATCTTGGGTTCTAACCTGTTGCCT (site AGCTGATCTAG) be said to have recombinant barcode read abundance (log10) at or above 0.1?
True

State whether the measured recombinant barcode read abundance (log10) reaches 0.1, counting equality as reaching it, for CCTACTACTTGGGTTCTAACCTGTTGCCG (site CCTACTACTCG)
False

# bool: recombinant barcode read abundance (log10) of TCGTGCACTTGGGTTCTAACCTGTTGCCT (site TCGTGCCCTAG) >= 0.1
True

Record CCGTCAACTTGGGTTCTAACCTGTTGCCT (site CCGTCAACTAG) ; criterion: recombinant barcode read abundance (log10) no lower than 0.1. Met?
True

Determine whether this sequence has recombinant barcode read abundance (log10) no lower than 0.1: GTTTGATCTTGGGTTCTAACCTGTTGCCT (site GTTTGTTCTAG)
False

Entry GTCCCTCCTTGGGTTCTAACCTGTTGCGT (site GTCCCTCCTAG) : is its recombinant barcode read abundance (log10) no less than 0.1?
True

State whether the measured recombinant barcode read abundance (log10) reaches 0.1, counting equality as reaching it, for CTAGTTGCTTGGGTTCTAACCTGTTGCAA (site CTAGTTGCTTT)
True

Given GGTCAACCTTGGGTTCTAACCTGTTGCCT (site GGTCAACCTAG) , state whether its recombinant barcode read abundance (log10) is at least 0.1.
True

Does the reported recombinant barcode read abundance (log10) for ATGCCATCTTGGGTTCTAACCTGTTGCCT (site ATTCCATCTAG) fall at or above the 0.1 mark?
True

Given AGTGTCGCTTGGGTTCTAACCTGTTGCGG (site AGTCTCGCTCC) , state whether its recombinant barcode read abundance (log10) is at least 0.1.
False

Hi, just wondering whether CGTTGCCCTTGGGTTCTAACCTGTTGCCT (site CGTTGCCCTAG) shows recombinant barcode read abundance (log10) of 0.1 or higher.
True

Does TCATGGGCTTGGGTTCTAACCTGTTGCAG (site TCATGGGCTCT) have a reported recombinant barcode read abundance (log10) of at least 0.1?
True

Identify whether the reported recombinant barcode read abundance (log10) of the following sequence is 0.1 or greater: CACCGAGCTTGGGTTCTAACCTGTTGCCG (site CAACGAGCTCG)
True

Given the entry ACTCGGCCTTGGGTTCTAACCTGTTGCCT (site ACTCGGCCTAG) , answer whether its recombinant barcode read abundance (log10) meets or surpasses 0.1.
True

Is it the case that ATAACCTCTTGGGTTCTAACCTGTTGCCT (site GAGGTGCCTCT) has recombinant barcode read abundance (log10) reaching or exceeding 0.1?
False

Reported recombinant barcode read abundance (log10) reaches at least 0.1 for CCTGGGACTTGGGTTCTAACCTGTTGCGG (site CCTGGGACTGC) ?
True

Kindly determine if recombinant barcode read abundance (log10) recorded for CATATAGCTTGGGTTCTAACCTGTTGCAT (site CATATAGCTAT) is above or exactly 0.1.
True

Does the sequence AGCGGTCCTTGGGTTCTAACCTGTTGCCT (site AGCGGCCCTAG) have recorded recombinant barcode read abundance (log10) that is 0.1 or more?
True

Form field: recombinant barcode read abundance (log10) at least 0.1? Entry: TTCTGTGCTTGGGTTCTAACCTGTTGCCT (site TTCTGAGCTAG)
False

Hello, I need to know if CCGTGGCCTTGGGTTCTAACCTGTTGCTT (site CCGTGGCCTAA) has measured recombinant barcode read abundance (log10) not below 0.1. Thanks!
True

Reported recombinant barcode read abundance (log10) at or above 0.1? GGTCGAACTTGGGTTCTAACCTGTTGCCT (site GGTCGAACTAG)
True

Could you verify whether the entry CTGAGCCCTTGGGTTCTAACCTGTTGCCT (site CTGTGCCCTAG) shows recombinant barcode read abundance (log10) of no less than 0.1?
False

Could you verify whether the entry AGGTCACCTTGGGTTCTAACCTGTTGCGT (site AGGTCACCTAC) shows recombinant barcode read abundance (log10) of no less than 0.1?
True

Is it the case that TTGAGATCTTGGGTTCTAACCTGTTGCCT (site TTGATATCTAG) has recombinant barcode read abundance (log10) reaching or exceeding 0.1?
True

Assess whether reported recombinant barcode read abundance (log10) for TATGTAGCTTGGGTTCTAACCTGTTGCCC (site TATGTAGCTCG) sits at 0.1 or higher.
False

Is reported recombinant barcode read abundance (log10) greater than or equal to 0.1 here: CATGGGACTTGGGTTCTAACCTGTTGCAT (site GGCAAACCTCC)
True

Threshold query (recombinant barcode read abundance (log10) >= 0.1) on GCGGGGTCTTGGGTTCTAACCTGTTGCCT (site GCGGGGTCTAG)
True

Quick check, recombinant barcode read abundance (log10) >= 0.1? TTAGGGCCTTGGGTTCTAACCTGTTGCCT (site TTAGGGCCTAG)
True

Would you say GCTTGAGCTTGGGTTCTAACCTGTTGCCG (site GCTTGAGCTCG) shows recombinant barcode read abundance (log10) at minimum 0.1?
True

Given the entry TCTAATCCTTGGGTTCTAACCTGTTGCAT (site TCTAATCCTAT) , answer whether its recombinant barcode read abundance (log10) meets or surpasses 0.1.
False

Reported recombinant barcode read abundance (log10) at or above 0.1? GGAATACCTTGGGTTCTAACCTGTTGCCT (site GGAATTCCTAG)
False

Please indicate if the recorded recombinant barcode read abundance (log10) for ATATCTTCTTGGGTTCTAACCTGTTGCCT (site ATATCTTCTAG) meets or exceeds 0.1.
True

Does the reported recombinant barcode read abundance (log10) for CCTGGGACTTGGGTTCTAACCTGTTGCGG (site CCTGGGACTAC) fall at or above the 0.1 mark?
False

Does the sequence ACGCGCCCTTGGGTTCTAACCTGTTGCAC (site ACGCGCCCTGT) have recorded recombinant barcode read abundance (log10) that is 0.1 or more?
True

Can CTAGTAGCTTGGGTTCTAACCTGTTGCTC (site GTAGCAGCTGA) be said to have recombinant barcode read abundance (log10) at or above 0.1?
True

Does the sequence CGAGGGGCTTGGGTTCTAACCTGTTGCCT (site CGAGGGGCTAG) have recorded recombinant barcode read abundance (log10) that is 0.1 or more?
True

# check: recombinant barcode read abundance (log10) of TTACGTCCTTGGGTTCTAACCTGTTGCGG (site TTACGTCCTCC) is greater than or equal to 0.1
True
